- System: IGROV1 ovarian
- procedure_details: NCI-60 one-dose screen, 48 h (100 = growth as untreated, 0 = no growth, -100 = all killed)
- setup_conditions: 10 µM unless noted
This is part of a sample that, as a whole, favours compounds with a hit. Of some 83,000 tested, about 20% had one in any assay.
readout_kind: growth (%)

>>> test_value("Cc1c(C(=O)/C=C/Nc2c(Cl)cc(S(N)(=O)=O)cc2Cl)sc2nc3ccccc3n12")
111
>>> test_value("CCCCCCN(CCCCCC)c1ccc(/C=C2/SC(=O)NC2=O)c(C)c1")
83.6
>>> test_value("CC([C@H]1CCC2C3CCC4C[C@@H](NC=O)CC[C@]4(C)C3CC[C@@]21C)N(C)C (stereo not given in full)")
25.6
>>> test_value("COc1cc(Nc2cn[nH]c2-c2ccc(Cl)cc2)cc(OC)c1OC")
39.8
>>> test_value("COc1cc(C(=O)c2cnc(-c3c[nH]c4cccc(C)c34)[nH]2)cc(OC)c1OC")
22.1
>>> test_value("COc1cccc(-c2nc(-c3ccc(NC(=O)OC(C)C)cc3)[nH]c2-c2ccnc(Br)c2)c1")
35.5
>>> test_value("NC1CCN(c2nc(Nc3cccc(C(F)(F)F)c3)c3c(=O)[nH]ccc3n2)CC1")
-46.2
>>> test_value("COc1cc(CNS(=O)(=O)c2ccc(C)cc2)ccc1OCc1cn(-c2ccccc2)nn1")
83.7
>>> test_value("Cc1nc(S(=O)(=O)c2ccccc2)c(S(=O)(=O)Cc2ccc([N+](=O)[O-])cc2)o1")
95.8
>>> test_value("O=C(N/N=C/c1ccc(Cl)cc1)c1ccc(C(F)(F)F)nc1Nc1cccc(C(F)(F)F)c1")
21.1

====

Below: a set of entries, each annotated with reported growth.
- Test system: NCI-H522 lung
- procedure_details: NCI-60 one-dose screen, 48 h (100 = growth as untreated, 0 = no growth, -100 = all killed)
- setup_conditions: 10 µM unless noted
About 83,000 compounds went through this panel and 20% of them were active in at least one assay; those are over-represented in the sample as a whole.
readout_kind: growth (%)

>>> test_value("CCCSc1nc2ccc(C)cc2cc1/C=[N+](\\[O-])c1ccccc1")
72.8
>>> test_value("Cc1cc2nc3ccc(N=Nc4ccc(N(C)C)cc4)cc3n(-c3ccccc3)c-2cc1=N")
-73.8
>>> test_value("Cc1nc2ccccc2n1-c1ncnc2c1CC(C)c1ccccc1N2C (stereo not given)")
72.5
>>> test_value("CCOC(=O)c1cn2ncnc(Oc3ccc(NC(=O)NCCN4CCOCC4)c(Cl)c3)c2c1C")
93.9
>>> test_value("c1ccc(-c2nc3nonc3nc2-c2ccccc2)cc1")
49.2

====

- System: NCI-H322M lung
- procedure_details: NCI-60 one-dose screen, 48 h (100 = growth as untreated, 0 = no growth, -100 = all killed)
- setup_conditions: 10 µM unless noted
The panel holds about 83,000 compounds, 20% with a hit somewhere; the sample as a whole holds those more often.
readout_kind: growth (%)

>>> test_value("O=c1n(Cc2ccc3ccccc3c2)ccn1Cc1ccc2ccccc2c1")
86.3
>>> test_value("CN(C)CCNc1nc2ccccc2c2c(=O)c3cc(F)ccc3sc12")
53
>>> test_value("N[C@@H](Cc1ccccc1)[C@@H](O)C(=O)NCc1ccc(F)cc1")
104
>>> test_value("NC(=O)C1(Nc2ccc(Br)cc2)CCCC1")
107
>>> test_value("COc1ccc(/C=C/c2c(C(=O)/C=C/c3ccc(Cl)cc3)c(C)nc3ccccc23)cc1")
68.6
>>> test_value("CC(=O)OC[C@H]1OC(Sc2sc(C(=O)c3ccc(Cl)cc3)c(N)c2-c2nc3ccccc3s2)[C@H](OC(C)=O)[C@@H](OC(C)=O)[C@@H]1OC(C)=O (some centres not stated)")
93.9
>>> test_value("O=C1c2cccc3cccc(c23)C(=O)N1Nc1nc(NC2CCCCC2)nc(N2CCOCC2)n1")
93.4
>>> test_value("CC(=O)OC[C@H]1OC(Sc2sc(C(=O)c3ccc(Br)cc3)c(N)c2-c2nc3ccccc3s2)[C@H](OC(C)=O)[C@@H](OC(C)=O)[C@H]1OC(C)=O (some centres not stated)")
91.8
>>> test_value("CC/C=C\\C[C@@H](O)C/C=C1/C(=O)C=C[C@H]1C/C=C\\CCCC(=O)OC")
12
>>> test_value("Oc1c(I)cc(I)cc1CNCCCN(Cc1ccccn1)Cc1ccccn1")
-75.3
>>> test_value("Cc1ccc(-c2nc3c(c(-c4ccccc4)nn3-c3ccccc3)c(-c3ccc(O)cc3)c2C#N)cc1")
88.5
>>> test_value("COc1cc2cc(Oc3ccc(NC(=O)Nc4cc(C(F)(F)F)cc(C(F)(F)F)c4)cc3)c(C)nc2cc1OCCN1CCOCC1")
49.5
>>> test_value("NS(=O)(=O)c1ccc(-n2nc(C(=O)N/N=C\\c3ccc(F)cc3)cc2-c2ccc(Br)cc2)cc1")
94.3
>>> test_value("CCN1C(=O)N(CC)C2Nn3c(s/c(=C4\\C(=O)N(CC(C)C)c5ccccc54)c3=O)=NC21 (configuration not stated)")
64.9
>>> test_value("O=C(CCOCCNC(=O)COc1ccc2c(c1)OCC(c1ccc(F)cc1)C2=O)NCCCC(O)(P(=O)(O)O)P(=O)(O)O (configuration not stated)")
102
>>> test_value("c1ccc(Cc2nn3cc(-c4ccccc4)nc3s2)cc1")
98.4
>>> test_value("O=C(N/N=C/[C@H](O)[C@@H](O)[C@@H](O)[C@H](O)CO)c1ccc(NC(=O)c2cccnc2)cc1")
103

====

- Test system: OVCAR-3 ovarian
- procedure_details: NCI-60 one-dose screen, 48 h
- setup_conditions: 10 µM unless noted
The panel holds about 83,000 compounds, 20% with a hit somewhere; the sample as a whole holds those more often. Activity calls are given as the source filed them. Rule for the calls: active = growth percent below 10; inactive = the rest.
Labels: active, inactive

>>> category_label("C#Cc1cccc(NC(=O)c2ccc(NC(=O)C=C)cc2)c1")
"inactive"
>>> category_label("COc1ccc(C2=Nn3c(nnc3-c3cc(Cl)cc(Cl)c3Cl)SC2)cc1")
"active"
>>> category_label("CC(=O)CC(c1ccccc1)c1c(C)[nH]c2ccccc12 (stereo not given)")
"inactive"
>>> category_label("CCCCCCCCCCCCCCCCCCOc1ccccc1CCCOP(=O)(O)OCC[N+](C)(C)C")
"inactive"
>>> category_label("CCN(CC)CCCNc1nc2ccccc2c2c(=O)c3cc(Cl)ccc3sc12")
"inactive"
>>> category_label("c1ccc(Nc2cc(-c3cccnc3)[nH]n2)cc1")
"inactive"
>>> category_label("Oc1ccc(C#CCOc2ccccc2)cc1CNCCN(Cc1ccccn1)Cc1ccccn1")
"inactive"
>>> category_label("C[C@]12CC[C@@H]3c4cc(OC(F)F)c(OS(N)(=O)=O)cc4CC[C@H]3[C@@H]1CC[C@@H]2OS(N)(=O)=O")
"inactive"
>>> category_label("O=C(Oc1cccc2ccccc12)Oc1cccc2ccccc12")
"inactive"
>>> category_label("CCOC(=O)c1cn2ncnc(Oc3ccc(NC(=O)NCCN(C)C)c(Cl)c3)c2c1C")
"inactive"
>>> category_label("CC/C=C\\C[C@@H]1C/C=C2/C(=O)C=C[C@H]2C/C=C\\CCCC(=O)O1")
"active"
>>> category_label("C=C1C(=O)O[C@H]2[C@H]1CC/C(COC(=O)CSCC(=O)OC/C1=C/CC[C@@]3(C)O[C@H]3[C@H]3OC(=O)C(=C)[C@@H]3CC1)=C\\CC[C@@]1(C)O[C@@H]21")
"active"
>>> category_label("CCc1ccc(Oc2c(-c3ccc(OCCc4cccc(C(F)(F)F)c4)cc3O)n[nH]c2C(F)(F)F)cc1")
"active"
>>> category_label("CCOC(=O)NCCc1ccccc1")
"inactive"
>>> category_label("Cc1ccc2c(-c3cc(-c4ccccc4)nc(N)c3C#N)cc(=O)oc2c1")
"inactive"

====

- System: NCI/ADR-RES ovarian
- procedure_details: NCI-60 one-dose screen, 48 h
- setup_conditions: 10 µM unless noted
This is part of a sample that, as a whole, favours compounds with a hit. Of some 83,000 tested, about 20% had one in any assay. Active and inactive are the calls of the source. Rule for the calls: active = growth percent below 10; inactive = the rest.
Labels: t (active), f (inactive)

>>> category_label("O=C1c2cccc3cccc(c23)C(=O)N1Nc1nc(NC2CCCCC2)nc(N2CCOCC2)n1")
"f"
>>> category_label("CCCCCCCCCCCCCCCCCCOc1ccc(CC(=O)OCC[N+]2(C)CCCCC2)cc1")
"f"
>>> category_label("CN1C(=C2C(=O)OC(C)(C)OC2=O)CCC1C(=O)NCc1ccc(Cl)cc1Cl (centres undefined)")
"f"
>>> category_label("O=C1c2cccc3cccc(c23)C(=O)N1Nc1nc(N2CCOCC2)nc(N2CCN(c3ccccc3)CC2)n1")
"f"
>>> category_label("Cc1cccc(NCc2cn(-c3ccc(C(=O)O)cc3)nc2-c2ccc(C(=O)O)cc2)n1")
"f"
>>> category_label("CCOC(=O)/C(C#N)=C\\Nc1ccc2ncnc(Nc3ccc(Cl)cc3Cl)c2c1")
"f"
>>> category_label("CCCCCCCCCCCCCCCCCCOc1ccccc1CCCOP(=O)(O)OCC[N+](C)(C)C")
"f"
>>> category_label("Cc1ccc(-c2cnc3sc(C(=O)NCCc4ccccc4)c(C)n23)cc1")
"f"
>>> category_label("CCc1ccc(Oc2c(-c3ccc(OCc4ccc(Cl)cc4)cc3O)n[nH]c2C(F)(F)F)cc1")
"f"
>>> category_label("CCc1cccc2c1S/C(=C/c1ccc(Cl)cc1)C2=O")
"f"
>>> category_label("c1ccc(Nc2cc(-c3cccnc3)[nH]n2)cc1")
"f"
>>> category_label("O=C(Nc1ccc(I)cc1F)c1cc(I)ccc1O")
"t"
>>> category_label("C/C(=N/NC(N)=S)c1sc(Nc2cccc(Cl)c2)nc1C")
"f"
>>> category_label("CCN1C(=O)N(CC)C2Nn3c(s/c(=C4\\C(=O)N(CC(C)C)c5ccccc54)c3=O)=NC21 (centres undefined)")
"f"
>>> category_label("O=c1cc(SCc2ccccc2)nc[nH]1")
"f"
>>> category_label("O=C(Nc1ccc(Cl)cc1F)c1cc(Cl)ccc1O")
"t"
>>> category_label("c1ccc(OCc2nnc(-c3ccc(Oc4ccccc4)cc3)o2)cc1")
"f"
>>> category_label("O=c1c2cc(F)ccc2sc2c(NCCCNCCO)nc3ccccc3c12")
"f"
>>> category_label("CCOC(=O)c1nc(Nc2ccc(C(C)=O)cc2)sc1C")
"f"
